# experiment: Observed rate of hydrolysis (logKobs) (pH=4.0)
# Assay type: ADME
attribute measured: Log Kobs

| compound | attribute measured | obs value |
| --- | --- | --- |
| CC1CN1C1=CC(=O)C(N2CC2C)=CC1=O (stereo not drawn) | Log Kobs | -1.55 |
| NC(=O)OCCC1=C(N2CC2)C(=O)C(Br)=C(N2CC2)C1=O | Log Kobs | -4.49 |
| O=C1C(N2CC2)=C(N2CC2)C(=O)C(N2CC2)=C1N1CC1 | Log Kobs | -3.7 |

====

# experiment: Observed rate of hydrolysis (logKobs) (pH=4.0)
# Assay type: ADME
Classify as follows. Reported Log Kobs greater than or equal to -4: true. Reported Log Kobs below: false.

| molecule | group |
| --- | --- |
| CC1=C(N2CC2)C(=O)C(Cl)=C(N2CC2)C1=O | false |
| CC1CN1C1=C(Cl)C(=O)C(N2CC2C)=C(Cl)C1=O (stereo not drawn) | false |
| CC1=C(N2CC2C)C(=O)C(CCOC(N)=O)=C(N2CC2C)C1=O (stereo not drawn) | true |
| CC1=C(N2CC2C)C(=O)C(Br)=C(N2CC2C)C1=O (stereo not drawn) | true |
| CC1CN1C1=C(Br)C(=O)C(N2CC2C)=C(Br)C1=O (stereo not drawn) | true |
| CCC1=C(N2CC2)C(=O)C(Br)=C(N2CC2)C1=O | false |
| O=C1C=C(N2CC2)C(=O)C=C1N1CC1 | true |
| O=C1C(Br)=C(N2CC2)C(=O)C(Br)=C1N1CC1 | false |
| CC1=C(N2C(C)C2C)C(=O)C(Br)=C(N2C(C)C2C)C1=O (stereo not drawn) | true |
| COC(COC(N)=O)C1=C(N2CC2)C(=O)C(C)=C(N2CC2)C1=O (stereo not drawn) [CARBOQUONE] | true |
| CCOC(=O)NC1=C(N2CC2C)C(=O)C(NC(=O)OCC)=C(N2CC2C)C1=O (stereo not drawn) | true |
| CCOC(=O)NC1=C(N2CC2)C(=O)C(NC(=O)OCC)=C(N2CC2)C1=O [DIAZIQUONE] | false |
| CC1=C(N2CC2)C(=O)C(Br)=C(N2CC2)C1=O | false |
| O=C1C(F)=C(N2CC2)C(=O)C(N2CC2)=C1N1CC1 | true |
| O=C1C=C(N2CC2)C(=O)C(N2CC2)=C1N1CC1 [TRIAZIQUONE] | true |
| OCC/N=C1C(O)=C(N2CC2)/C(=N\CCO)C(O)=C/1N1CC1 | true |
| CCC1=C(N2CC2)C(=O)C(C)=C(N2CC2)C1=O | true |
| O=C1C(Cl)=C(N2CC2)C(=O)C(Cl)=C1N1CC1 | false |
| CC1=C(N2CC2C)C(=O)C(C)=C(N2CC2C)C1=O (stereo not drawn) | true |
| COC1=C(N2CC2)C(=O)C(OC)=C(N2CC2)C1=O | true |
